From: paper PMC9516332

Tested on: 134 cancer cell lines
protocol.notes: Cell viability assay (ATPlite, 72 hours), IC50 on cancer cell line panel
test.settings: Homo sapiens, BXPC-3, read-out: IC50 in cell proliferation assay
measured.quantity: pIC50
Answers are plain numbers, as −log10 of the molar value.

C[C@@H](Oc1cc(-c2cnn(C3CCNCC3)c2)cnc1N)c1c(Cl)ccc(F)c1Cl; 5.57

In: Field: pIC50 (134 cancer cell lines). Entry: Cn1cc(-c2cc3c(N4CCN(c5ncc([C@@](C)(N)c6ccc(F)cc6)cn5)CC4)ncnn3c2)cn1
Out: 6.53

* * *

study.target: panel of 255 wild-type kinases (Homo sapiens, UniProt Q9HBH9)
Sequence (Q9HBH9 whole entry): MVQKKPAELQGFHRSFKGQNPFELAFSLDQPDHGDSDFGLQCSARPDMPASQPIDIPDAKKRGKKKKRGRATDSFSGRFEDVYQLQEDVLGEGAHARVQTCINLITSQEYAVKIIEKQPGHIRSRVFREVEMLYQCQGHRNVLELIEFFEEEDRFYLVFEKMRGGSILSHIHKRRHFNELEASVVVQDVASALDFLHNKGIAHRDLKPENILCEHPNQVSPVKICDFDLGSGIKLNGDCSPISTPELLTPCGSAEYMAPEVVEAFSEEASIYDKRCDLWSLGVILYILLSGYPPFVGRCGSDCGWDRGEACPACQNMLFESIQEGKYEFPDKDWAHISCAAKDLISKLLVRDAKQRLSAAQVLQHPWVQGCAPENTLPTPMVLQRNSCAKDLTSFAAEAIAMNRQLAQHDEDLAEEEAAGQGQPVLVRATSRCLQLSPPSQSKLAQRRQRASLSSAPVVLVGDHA
protocol.notes: Kinase panel profiling at 1 µmol/L (MSA or IMAP), percentage inhibition
Type: biochemical
test.settings: MNK2; 1 µmol/L single concentration; read-out: %-inhibition, MNK2
Would you kindly list inhibition at 1 µM for each of these compounds?
Answers are plain numbers, in %.

Would you please look over these solved cases?
COC(=O)N[C@@H](C)CNc1nccc(-c2cn(C(C)C)nc2-c2cc(Cl)cc(NS(C)(=O)=O)c2F)n1 [encorafenib]; -3.42
Cc1cc(Nc2ncnc3ccc(NC4=NC(C)(C)CO4)cc23)ccc1Oc1ccn2ncnc2c1 [tucatinib]; 8
C[C@H](Nc1ncnc2nc[nH]c12)c1cc2cccc(Cl)c2c(=O)n1-c1ccccc1 [duvelisib]; 7
Cn1cnc2c(F)c(Nc3ccc(Br)cc3Cl)c(C(=O)NOCCO)cc21 [selumetinib]; -0.47
COc1cc2ncnc(Nc3ccc(F)c(Cl)c3)c2cc1NC(=O)/C=C/CN1CCCCC1 [dacomitinib]; 76

Hi team, please reply with inhibition at 1 µM for each item in this list.
1. C=CC(=O)N1CCC([C@@H]2CCNc3c(C(N)=O)c(-c4ccc(Oc5ccccc5)cc4)nn32)CC1 [zanubrutinib]
2. CO[C@]1(C(=O)N[C@@H](C)c2ccc(-n3cc(F)cn3)nc2)CC[C@H](c2nc(C)cc(Nc3cc(C)[nH]n3)n2)CC1 [pralsetinib]
3. CCN1C(=O)N(c2c(F)c(OC)cc(OC)c2F)Cc2cnc3[nH]c(CN4CCOCC4)cc3c21 [pemigatinib]
4. CCn1c(=O)c(-c2cc(NC(=O)Nc3ccccc3)c(F)cc2Br)cc2cnc(NC)cc21 [ripretinib]

Out:
[-5, 2, -7.4, 5]

Hi team, please reply with inhibition at 1 µM for each item in this list.
1. CN1CCN(c2ccc(C(=O)Nc3n[nH]c4ccc(Cc5cc(F)cc(F)c5)cc34)c(NC3CCOCC3)c2)CC1 [entrectinib]
2. C[C@H]1Oc2cc(cnc2N)-c2c(nn(C)c2C#N)CN(C)C(=O)c2ccc(F)cc21 [lorlatinib]
3. FC(F)(F)c1ccc(CNc2ccc(Cc3c[nH]c4ncc(Cl)cc34)cn2)cn1 [pexidartinib]
4. CCc1nc(C(N)=O)c(Nc2ccc(N3CCC(N4CCN(C)CC4)CC3)c(OC)c2)nc1NC1CCOCC1 [gilteritinib]
5. Cn1cc(-c2cc3c(N4CCN(c5ncc([C@@](C)(N)c6ccc(F)cc6)cn5)CC4)ncnn3c2)cn1 [avapritinib]
6. Cc1nc(NC(=O)N2CCC[C@H]2C(N)=O)sc1-c1ccnc(C(C)(C)C(F)(F)F)c1 [alpelisib]

Out:
1: 0.904; 2: 13; 3: 48; 4: 89; 5: 29; 6: 8

* * *

study.target: panel of 255 wild-type kinases (Homo sapiens, UniProt P05129)
protocol.notes: Kinase panel profiling at 1 µmol/L (MSA or IMAP), percentage inhibition
Type: biochemical
test.settings: kinase PKCγ; 1 µmol/L single concentration; read-out: %-inhibition at 1 µmol/L, PKCγ
Would you kindly list inhibition at 1 µM for each of these compounds?
One number for each entry, in %.

Would you please look over these solved cases?
Cn1cnc2c(F)c(Nc3ccc(Br)cc3Cl)c(C(=O)NOCCO)cc21 [selumetinib]; -0.133
C=CC(=O)N1CCC([C@@H]2CCNc3c(C(N)=O)c(-c4ccc(Oc5ccccc5)cc4)nn32)CC1 [zanubrutinib]; -2.24
Cc1nc(NC(=O)N2CCC[C@H]2C(N)=O)sc1-c1ccnc(C(C)(C)C(F)(F)F)c1 [alpelisib]; -1.86

Query compound follows.
In: What does the data say about its inhibition at 1 µM? Entry: CCN1CCN(c2ccc(Nc3cc(N(C)C(=O)Nc4c(Cl)c(OC)cc(OC)c4Cl)ncn3)cc2)CC1 [infigratinib]
Out: 0.114
